Assay: Plasma stability
Conditions: 1 μm, 37° C., mouse plasma diluted with 1 volume of PBS pH 7.4
value.kind: Plasma stability [% remaining at 2 h] (% remaining at 2 h)
Give just the number in % remaining at 2 h; leave the unit off.

CCC(=O)Nc1ccc(-c2ccc(-c3ccccc3)cc2)cc1C(=O)O: 94
CCCCCc1ccc(C#Cc2ccc(NC(=O)CC)c(C(=O)O)c2)cc1: 114
CCC(C)c1ccccc1OCCCC(=O)Nc1ccccc1C(=O)O (racemic): 85

Task item: So what's the measured Plasma stability [% remaining at 2 h] for this one? Cc1ccc(NC(=O)COc2ccccc2Cc2ccccc2)c(C(=O)O)c1
Reply: 75

Task item: Reported Plasma stability [% remaining at 2 h] for CCCCCc1ccc(C#Cc2ccc(NC(=O)C(C)C)c(C(=O)O)c2)cc1 : what is it?
Reply: 98

Cited source: patent US20220227720A1
